biological target: T1, Fibronectin ED-B protein (human fibronectin extra domain B, N-terminal His-tag) (human, UniProt P02751 1266-1356, biotinylated with sulfo-NHS-SS-biotin for biopanning, input-phage ELISA and SPR on the streptavidin chip); experiment: SPR, synthetic bipodal peptide on ED-B
T1 construct: domain: ED-B; Expressed in E. coli BL21 from pET28b; also called biotinylated-EDB; not shown: N-terminal His-tag from the pET28b vector
T1 sequence (P02751 1266-1356): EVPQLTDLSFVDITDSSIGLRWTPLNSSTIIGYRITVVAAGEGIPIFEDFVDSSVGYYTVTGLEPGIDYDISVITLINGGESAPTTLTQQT
observation_type: Kd

binder	experimental_value
HCSSAVGSWTWENGKWTWKGIIRLEQ [Peptide 2 specific to fibronectin ED-B (Table 3a), bipodal-peptide binder with tryptophan zipper]	43 nM
